# System: RXF 631
# EXPERIMENTAL PROTOCOL: NCI tumour cell line growth inhibition, 48 h
Counter-ions that a name gives are not always drawn. Active and inactive are the calls of the source. Rule as the data show it: active = GI50 up to about 1.1 µM and inactive = higher.
API: response.call in T = active, F = inactive

MOLECULE: CCCCN(CCCC)C(=O)/C(CC(=O)c1cccc2ccccc12)=N\NC(=O)c1cc2ccccc2cc1O
GROUP LABEL: F

-- ask For this molecule, state the assay outcome: CC(=O)N(O)CCCCCNC(=O)CCC(=O)N(O)CCCCCNC(=O)CCC(=O)N(O)CCCCCN [DEFEROXAMINE HYDROCHLORIDE]
-- reply F

-- ask For this molecule, state the assay outcome: "C#CCOc1c(C(=O)OCC)c(=O)n(C)c2ccccc12"
-- reply F

-- ask For this molecule, state the assay outcome: CC1=Nc2c(ccc3c2C(=O)c2ccccc2C3=O)NC(c2ccncc2)C1 (stereo not drawn)
-- reply F

-- ask For this molecule, state the assay outcome: COC1CC(O)C(OC(=O)c2ccccc2)C(C)O1 (stereo not drawn)
-- reply F

-- ask For this molecule, state the assay outcome: COC(=O)CC(NC(=O)OCc1ccccc1)C(C(C)=O)C(=O)OCc1ccccc1 (stereo not drawn)
-- reply F

Entry source: ChEMBL document CHEMBL1201862
